Assayed Target: T1, HIV-1 Tat-derived peptide RKKRRQRRRPPQGS (Human immunodeficiency virus 1)
T1 chain: RKKRRQRRRPPQGS
Assay Overview: EMSA; Tm 61 C; SEQ 2 in the listing appears to be printed 3'-5'
Stated Conditions: protein: synthetic; tags: synthetic peptide, American Peptide Co; HIV LAI isolate; label: 5'-32P; bottom-linked duplex with UCU bulge
Observation Type: Kd (nM)
Write the number in nM without appending the unit.

Value of measured Kd for the entry GCUCUCUCCGGAGAUCUGAGC (ssRNA, chemical linker at bottom of duplex between the two strands) [TAR conjugate oligomer 9] : 2.2
